condition parameters: in THF, 318.15 K
measured property: solubility (mole fraction)
Number only, please.

Identify solubility (mole fraction) associated with the compound C=C1C[C@]23C[C@@]1(O)CC[C@H]2[C@@]12C=C[C@H](O)[C@@](C)(C(=O)O1)[C@H]2[C@@H]3C(=O)O
0.371

* * *

condition parameters: in isopropanol, 323.15 K
measured property: solubility (mole fraction)
// return a plain number; no unit text

Recall and state the measured solubility (mole fraction) for C=C1C[C@]23C[C@@]1(O)CC[C@H]2[C@@]12C=C[C@H](O)[C@@](C)(C(=O)O1)[C@H]2[C@@H]3C(=O)O .
0.00111

* * *

condition parameters: in n-butanol, 278.15 K
measured property: solubility (mole fraction)

Kindly indicate its recorded solubility (mole fraction). Item: C=C1C[C@]23C[C@@]1(O)CC[C@H]2[C@@]12C=C[C@H](O)[C@@](C)(C(=O)O1)[C@H]2[C@@H]3C(=O)O
0.0021
